This section presents compounds with their documented TGI values.
test system: K-562 leukemia; assay: NCI tumour cell line growth inhibition, 48 h

Below, each entry is followed by its recorded TGI result.
{"columns": ["compound", "measurementTarget", "reading"],
 "data": [
  ["CN(C)CC1CCCC/C1=N/OC(=O)c1ccc(Cl)c(Cl)c1 (centres undefined)", "K-562 leukemia", "> 100 µM"],
  ["COc1c(N2CCN(Cn3c(O)c(N=NC(=O)c4ccncc4)c4cc(F)ccc43)C(C)C2)c(F)cc2c(=O)c(C(=O)O)cn(C3CC3)c12 (centres undefined)", "K-562 leukemia", "> 50 µM"],
  ["C1C[OH+]CC[OH+]CC[OH+]CC[OH+]CC[OH+]CC[OH+]1.[Cl-].[Nb+5]", "K-562 leukemia", "> 100 µM"]
]}

The record that follows has no TGI shown yet.
Problem: What does the record list as TGI for CC1=C(C(=O)Nc2ccccc2)C(c2ccc(C(C)C)cc2)C(C(=O)Nc2ccccc2)=C(C)N1 ?
Solution: 54.9 µM

* * *

system: HCT-116 colon; experiment: NCI tumour cell line growth inhibition, 48 h; in the data active means GI50 below about 0.43 µM; inactive means the rest
Log the outcome using a class from class 1 for active, class 0 for inactive

{"columns": ["mol", "labelValue"],
 "data": [
  ["CCCCCCNC(=O)Oc1ccc(/C(=C(\\C)c2ccccc2)c2ccc(OCCN(CC)CC)cc2)cc1", "class 0"],
  ["CCc1nc(-n2c(-c3ccccc3)nc3ccccc3c2=O)nc(N)c1-c1ccc(Cl)cc1", "class 0"],
  ["CCOC(=O)/C(C#N)=C/Nc1ccc(-c2nc3ccccc3[nH]2)cc1", "class 0"],
  ["O=C1c2ccn(CCCCN3CCC(O)CC3)c2C(=O)c2c1c(O)c1ccccc1c2O", "class 0"],
  ["CC1(C)[C@@H](OC(N)=O)C=C[C@]2(C=O)[C@H]3CC[C@]4(C)[C@@H](c5ccc(=O)oc5)[C@@H](Cl)C[C@]4(O)C3=CC[C@@H]12", "class 1"]
]}

Problem: Hi team, can someone confirm the assay call for COc1ccc(NC(=O)/C=C(C)/C=C/C=C(C)\C=C\C2=C(C)CCCC2(C)C)cc1 ?
Solution: class 0

Problem: Hi team, can someone confirm the assay call for COc1ccc(/C=N/N=C(\[O-])c2ccncc2)cc1F.COc1ccc(/C=N\N=C(/[O-])c2ccncc2)cc1F.[Cu+2] ?
Solution: class 0

Problem: Hi team, can someone confirm the assay call for O=C(NCCCCOCC#Cc1ccccc1C#CCS(=O)(=O)c1ccccc1)c1cc2ccccc2[nH]1 ?
Solution: class 0

Problem: Hi team, can someone confirm the assay call for CN1CCN(CCOc2ccc(-c3cnc4c(-c5ccc(F)cc5)cnn4c3)cc2)CC1 ?
Solution: class 0

Problem: Hi team, can someone confirm the assay call for Cc1nnc(-c2ccc(-c3nc4ccccc4o3)cc2)o1 ?
Solution: class 0

Problem: Hi team, can someone confirm the assay call for CN(C)CCNc1nc2ccccc2c2c(=O)c3ccccc3sc12 ?
Solution: class 0

* * *

test system: U251 CNS; assay: NCI tumour cell line growth inhibition, 48 h
reportedEndpoint: TGI

Below, each entry is followed by its recorded TGI result.
{"columns": ["compound", "measurementTarget", "TGI"],
 "data": [
  ["C[N+](C)(N)c1nc(N)c(C#N)c(C#N)c1C#N", "U251 CNS", "> 10 µM"],
  ["CN(C)c1ccc(/C=c2/c3cc([N+](=O)[O-])ccc3n3c2cc(-c2ccccc2)[n+]3C)cc1", "U251 CNS", "1.32 µM"],
  ["COC(=O)C1CC(C(=O)OC)c2nc3cc(C)c(C)cc3nc21 (centres undefined)", "U251 CNS", "> 100 µM"]
]}

Problem: Provide the documented TGI with U251 CNS as the system for C#CCN(C)C(=O)N(CC#C)N=O
Solution: > 100 µM

* * *

system: NCI-H522 lung; assay: NCI tumour cell line growth inhibition, 48 h
reportedEndpoint: GI50

{"columns": ["mol", "measurementTarget", "reading"],
 "data": [
  ["O=[N+]([O-])c1cc(F)c2cccnc2c1O", "NCI-H522 lung", "4.01 µM"],
  ["CN1CCN(CCOc2ccc(-c3cnc4c(-c5ccc(F)cc5)cnn4c3)cc2)CC1", "NCI-H522 lung", "1.87 µM"],
  ["CCCCOc1ccc(/C=N/Nc2cc(C)nc3ccc(Cl)cc23)cc1", "NCI-H522 lung", "1.72 µM"],
  ["O=S(=O)(O)ONC1=NCCN1", "NCI-H522 lung", "> 100 µM"]
]}

Problem: What does the record list as GI50 for Cc1ccc2c(c1)C(=O)c1c-2n(CCCN=[N+]=[N-])c(=O)c2cc([N+](=O)[O-])ccc12 ?
Solution: 25.8 µM

* * *

This section presents compounds with their documented TGI values.
tested on: SNB-75 CNS; assay: NCI tumour cell line growth inhibition, 48 h

{"columns": ["compound", "measurementTarget", "TGI"],
 "data": [
  ["CC(=O)n1ccc2c(Cl)ncnc21", "SNB-75 CNS", "> 100 µM"],
  ["O=C(NCCCCOCC#Cc1ccccc1C#CCS(=O)(=O)c1ccccc1)c1cc2ccccc2[nH]1", "SNB-75 CNS", "27.3 µM"],
  ["Cc1sc2nc3n(c(=O)c2c1C)N=C(c1ccc([N+](=O)[O-])cc1)CS3", "SNB-75 CNS", "> 100 µM"],
  ["COc1ccc(N2C(=O)C3CC4=CC(=O)C[C@H]4[C@H]32)cc1 (stereo not given in full)", "SNB-75 CNS", "> 100 µM"],
  ["C#CCOC(=O)C(N)CCSC (stereo not given)", "SNB-75 CNS", "> 100 µM"],
  ["COc1cc(-c2nn(-c3ccc(NC(=O)c4cc(Cl)cc(Cl)c4)cc3)cc2-c2ccncc2)ccc1Cl", "SNB-75 CNS", "> 100 µM"],
  ["CCOC(=O)/N=c1/nc(N(C)C)ss1", "SNB-75 CNS", "> 100 µM"],
  ["O=[N+]([O-])c1ccc2ncccc2c1CCc1c([N+](=O)[O-])ccc2ncccc12", "SNB-75 CNS", "> 100 µM"]
]}

Problem: Provide the documented TGI with SNB-75 CNS as the system for CC(/C=N/NC1=NCCCN1)=N\NC1=NCCCN1
Solution: > 100 µM

Problem: Provide the documented TGI with SNB-75 CNS as the system for CCOC(=O)NC(=O)c1c[nH]c(=O)[nH]c1=O
Solution: > 100 µM

* * *

This section presents molecules with their documented TGI values.
tested on: SW-620 colon; assay: NCI tumour cell line growth inhibition, 48 h

Below, each entry is followed by its recorded TGI result.
{"columns": ["molecule", "TGI"],
 "data": [
  ["c1ccc(C2[C@@H]3CCCc4ccccc4C3=NN2c2ccccc2)cc1 (stereo partly drawn)", "> 100 µM"],
  ["CC1CC[C@@]2(OC1)OC1C[C@H]3[C@@H]4CCC5CC(O)CC[C@]5(C)[C@H]4C/C(=N\\N(C)C)[C@]3(C)C1[C@@H]2C (stereo partly drawn)", "> 100 µM"]
]}

The record that follows has no TGI shown yet.
Problem: What does the record list as TGI for O=C1OC(=O)C2C1C(c1ccccc1[N+](=O)[O-])C=C(c1ccco1)N2c1ccncc1 (stereo not drawn) ?
Solution: 15 µM

* * *

test system: MDA-MB-435; experiment: NCI tumour cell line growth inhibition, 48 h
This section presents molecules with their documented TGI values.

Below, each entry is followed by its recorded TGI result.
{"columns": ["molecule", "TGI"],
 "data": [
  ["OC(COc1cccc2ccccc12)CN1CCN(c2ccccc2Cl)CC1 (stereo not given)", "30.4 µM"],
  ["CCN1CCNc2c3cc(OC)ccc3nc3c([N+](=O)[O-])ccc1c23", "2.2 µM"],
  ["C#CCCCC(=O)N(C(=O)CS(=O)CC)c1ccccc1 (stereo not given)", "> 100 µM"],
  ["CN(C)CCn1nc(N)c2nc3cc(C(F)(F)F)ccc3nc21", "> 100 µM"],
  ["OC(CN1CCCCC1)c1ccc(/C=C/c2ccc(Cl)cc2)cc1 (stereo not given)", "> 100 µM"]
]}

Problem: What does the record list as TGI for O=S(=O)(/N=C(\NO)Nc1ccc(Cl)cc1)c1ccc(-c2ccccn2)s1 ?
Solution: > 100 µM

Problem: What does the record list as TGI for N=C(N)c1ccc(-c2ccc(-c3ccc(F)cc3)s2)s1 ?
Solution: 2.93 µM

Problem: What does the record list as TGI for O=C1N[C@@H](COc2ccc(C=Nc3ccc(CCc4ccc(N=Cc5ccc(OC[C@@H]6COC(=O)N6)cc5)cc4)cc3)cc2)CO1 ?
Solution: > 100 µM

Problem: What does the record list as TGI for O=C(c1ccccc1)C1C(C(=O)c2ccccc2)C(c2ccccc2)N(c2ccccc2)C1c1ccccc1 (stereo not given) ?
Solution: > 100 µM

Problem: What does the record list as TGI for CC1(C)C2CCC(N)(C2)C1O (stereo not given) ?
Solution: > 100 µM
